Cited source for all entries: paper PMC4122235

# experimental-system: CarKam
# procedure-text: isothermal titration calorimetry, single-site fit
# Assay type: binding, Candidatus Arthromitus sp. SFB-mouse-NYU
# measurement-parameters: read-out: Kd (μM) / SAH; 25 °C, 20 mM Tris pH 7.5, 10 mM magnesium acetate, 250 mM NH4Cl, 10 % glycerol, 6 mM β-mercaptoethanol; no 30S subunit
property-measured: Kd (µM)
The response must be a number in µM with no trailing unit.

The recorded Kd for entry Nc1ncnc2c1ncn2[C@@H]1O[C@H](CSCC[C@H](N)C(=O)O)[C@@H](O)[C@H]1O [SAH] equals 4.1

====

# experimental-system: UniProtKB K2DC64
property-measured: Kd (µM)
The response must be a number in µM with no trailing unit.

The recorded Kd for entry C[S+](CC[C@H](N)C(=O)O)C[C@H]1O[C@@H](n2cnc3c(N)ncnc32)[C@H](O)[C@@H]1O (stereo partly shown) equals 75
